Assignment: determine reported growth for the given molecules.
system: BT-549 breast; experiment: NCI-60 one-dose screen, 48 h (100 = growth as untreated, 0 = no growth, -100 = all killed); details: 10 µM unless noted
Compounds without any hit were thinned out: in the full panel of roughly 83,000, 20% have a hit.
Reply numerically in %, unit not repeated.

// growth lookup, molecule = O=C(O)c1cccc(-c2ccc(/C=N/NC(=O)c3[nH]c4ccc(Br)cc4c3-c3ccccc3)o2)c1 , result: 34.7

Entry under test: CC(=O)OCC1OC(OC2C(COC(C)=O)OC(n3cc(COc4ccc5ccc(=O)oc5c4)nn3)C(OC(C)=O)C2OC(C)=O)C(OC(C)=O)C(OC(C)=O)C1OC(C)=O (centres undefined) . Its growth was 101

Record COc1cc2c(c(OC)c1OC)C(=O)CC(c1cccc(NC(=O)c3cccc([N+](=O)[O-])c3)c1)O2 (centres undefined) , field growth: -7.24

Entry CCCCSc1nc(NCCc2c[nH]c3ccccc23)c(C#N)c(-c2ccccc2)n1 , growth reported as 70.2

###

system: KM12 colon; test: NCI-60 one-dose screen, 48 h; settings: 10 µM unless noted
Compounds without any hit were thinned out: in the full panel of roughly 83,000, 20% have a hit. Active and inactive are the calls of the source. Rule for the calls: active = growth percent below 10; inactive = the rest.
Outcome (select one): active, inactive

query: Assay outcome for NS(=O)(=O)c1ccc(NNC(=O)CCC(=O)c2ccccc2)cc1 : what was it?
result: inactive

query: What did this assay record as the result for CCOC(=O)C1=C(N)N(c2ccccc2)C2=C(C(=O)CC(C)(C)C2)C1c1ccccc1Cl (stereo not drawn) ?
result: inactive

query: Give the logged outcome of this assay for the following molecule: N#Cc1c(-c2ccc(Cl)cc2)nc2n[nH]c(-c3ccc(Cl)cc3)c2c1-c1ccc(C(F)(F)F)cc1
result: active

query: Kindly provide the recorded test outcome for the following molecule: COc1cc2oc(-c3cccc(C(=O)Nc4ccc(Cl)cc4)c3)cc(=O)c2c(OCCNC(=O)[C@H](CCC(=O)OC(C)(C)C)NC(=O)OC(C)(C)C)c1OC
result: inactive

query: Which outcome was assigned to COc1ccc(NC(=O)Cn2c(/C=C/c3cccc([N+](=O)[O-])c3)nc3ccccc3c2=O)cc1 in this test?
result: inactive

query: Write down the call the test reported for this molecule. Item: COc1ccc(-c2ccnc(SCc3cc4cc(Cl)ccc4[nH]c3=O)n2)cc1
result: inactive

query: Hi, do you know how CCCCSc1nc(Nc2ccc(S(N)(=O)=O)cc2)c(C#N)c(-c2cc(OC)c(OC)c(OC)c2)n1 came out in this test?
result: inactive

query: For CC12CC[C@@H]3[C@]4(C)COC(c5cn[nH]c5-c5cccc(Cl)c5)O[C@@H]4CC[C@@]3(C)[C@@H]1CC(C1=CCOC1=O)O2 (stereo partly drawn) , what call appears in the results of this test?
result: inactive

###

system: SR leukemia; experiment: NCI-60 one-dose screen, 48 h (100 = growth as untreated, 0 = no growth, -100 = all killed); details: 10 µM unless noted
Compounds without any hit were thinned out: in the full panel of roughly 83,000, 20% have a hit.
Measurement Type: growth (%)
Write the value in % as a bare number.

Value of growth reported for the compound C/C(=N\N=C1/C(=O)Nc2ccc(Cl)cc21)c1ccc2c(c1)Nc1ccccc1S2 is 11.4

// recorded growth for COc1c(F)ccc(C(=O)Nc2ccc3nc(NC(=O)C4CCCN(S(=O)(=O)C5CC5)C4)sc3c2)c1F (centres undefined) : 10.3

Reported growth ( CC(=O)OC[C@@]1(C)C2CC[C@]3(C)C(CC=C4C5CC(C)(C)CC[C@]5(C(=O)Nc5cccc(C)c5)CC[C@]43C)[C@@]2(C)C[C@@H](OC(C)=O)[C@@H]1OC(C)=O (some centres undefined) ) = 30

Record COc1cc2nc(SCc3ccccc3)n(-c3ccc(Cl)cc3)c(=O)c2cc1OC . Reported growth: 5.33

Note to self: growth recorded for COc1ccc(-c2nc3cc(C)ccc3n2CC(=O)N=Nc2c(O)[nH]c3ccc(OC)cc23)cc1 was -21.1

Field growth (entry CC(=O)Nc1cccc(Nc2nc(N[C@H]3CCCc4ccccc43)c3ccccc3n2)c1 ) reads 81.3

Lab note: CC(C)Sc1nc(NCCc2c[nH]c3ccccc23)c(C#N)c(-c2ccc(F)cc2)n1 gave growth of -19.8

Looking up CCCCCCCCc1ccc(C(=O)Nc2ccc(C)cc2C(=O)O)cc1C , I see its growth listed as 88.2

CC1(C)CC[C@]2(C(=O)Nc3ccc(F)cc3)CC[C@]3(C)C(=CCC4[C@@]5(C)C[C@@H](O)[C@H](O)[C@@](C)(CO)C5CC[C@]43C)C2C1 (some centres undefined) yielded growth of 1.68

Noted for CCOC(=O)c1ccc(Nc2nc(NN)nc(-c3ccc(F)cc3)c2C#N)cc1 : its growth reads 72.4

Memo: Cn1cc(-c2nc(N)nnc2-c2c[nH]c3ccc(Br)cc23)c2cc(Br)cnc21 , reported growth: -17.2

The reported value for O=C1Nc2cc(Cl)ccc2/C1=C/c1cccc(OCc2ccccn2)c1 in terms of growth is -0.484

Entry COc1ccc(-c2cc(C(=O)NCc3ccccc3)nn2-c2ccc(S(C)(=O)=O)cc2)cc1OC — recorded growth = 82.3

For record CCCSc1nc(NCCc2c[nH]c3ccccc23)c(C#N)c(-c2ccc(OC)cc2)n1 the listed growth is 4.81

Short answer for CC1=C(C(=O)c2ccccc2)C(c2cccc(Cl)c2Cl)n2c(nc3ccccc32)N1 (centres undefined) : growth was 39.2

Memo: Cc1ccc2c(c1)nc(-c1ccccc1)n2CC(=O)N=Nc1c(O)[nH]c2ccc(Br)cc12 , reported growth: 0.421

Lab note: COc1ccc2oc3c4[nH]c5ccccc5c4c4c(c3c2c1)C(=O)N(C(=O)OC(C)(C)C)C4=O gave growth of -5.86

Kindly note the recorded growth for O=C(CSc1nc2ccccc2c(=O)[nH]1)NCCN1CCCCC1 , which is 90.9

According to the records, this compound C#CCOc1ccc(/C=N/Nc2nc(-c3ccc(Cl)cc3)cs2)cc1OC displays growth of 22.2

###

tested on: OVCAR-8 ovarian; assay: NCI-60 one-dose screen, 48 h (100 = growth as untreated, 0 = no growth, -100 = all killed); details: 10 µM unless noted
About 83,000 compounds went through this panel and 20% of them were active in at least one assay; those are over-represented in the sample as a whole. The source made the active and inactive calls. Rule for the calls: active = growth percent below 10; inactive = the rest.
Exercise: state measured growth for each of the molecules provided.

growth recorded for this molecule, COc1ccccc1C(=O)NN1C(=O)/C(=C/C2=Cc3ccccc3OC2)SC1=S , is 99.9% (inactive)

For reference, reported growth for COc1cc2oc(-c3cccc(C(=O)Nc4cccc([N+](=O)[O-])c4)c3)cc(=O)c2c(OC)c1OC stands at 5.89% (active)

growth recorded for this molecule, COc1cc(/C=C/C(=O)c2nnn(-c3ccc(Cl)cc3)c2C)cc(OC)c1OC , is 31.8% (inactive)

Recorded result, Cn1cc(-c2nnc(N)nc2-c2c[nH]c3ccccc23)c2cccnc21 , growth: 49.7% (inactive)

Reported growth of C/C(=N\N=C1/C(=O)Nc2ccc(Cl)cc21)c1ccc2c(c1)Nc1ccccc1S2 : -15.6% (active)

Value of growth reported for the molecule C=C1CC[C@@H]2[C@]3(C)COC(c4cn[nH]c4-c4cccc(Br)c4)O[C@@H]3CC[C@@]2(C)[C@@H]1C/C=C1/C(=O)OCC1O (some centres undefined) is -42.5% (active)

Form: molecule = COc1cc(-c2nc3cc(Cl)c(Cl)cc3[nH]2)ccc1OCc1nnc(-c2cccs2)o1 ; growth = 38% (inactive)

In plain terms, O=C(N1c2ccccc2Sc2ccccc21)n1ccc2cccnc21 has a documented growth of 88.1% (inactive)

growth reported for this molecule CSc1ccc(NC(=O)c2ccc3nnn(/C(C#N)=C/c4ccccn4)c3c2)cc1 : -60.6% (active)

###

test system: SK-MEL-28 melanoma; test: NCI-60 one-dose screen, 48 h (100 = growth as untreated, 0 = no growth, -100 = all killed); details: 10 µM unless noted
The panel holds about 83,000 compounds, 20% with a hit somewhere; the sample as a whole holds those more often.
Assign class by growth: not lower than 80% means true; lower than 80% means false.

query: Given COc1cc2c(c(OC)c1OC)C(=O)CC(c1cccc(NC(=O)[C@@H](N)CC(C)C)c1)O2 (stereo partly drawn) , state whether its growth is at least 80%.
result: true

query: Check the entry C#CCOc1cc(N(CC)CC)ccc1C(C(=O)NC(C)(C)C)N(C(=O)C1CCc2cc(F)ccc2O1)c1ccc(F)cc1 (stereo not drawn) : does growth equal or exceed 80%?
result: false

query: Hi, just wondering whether COc1cc2oc(-c3cccc(NC(=O)[C@H](Cc4ccccc4)NC(=O)OC(C)(C)C)c3)cc(=O)c2c(OC)c1OC shows growth of 80% or higher.
result: false

query: Can Cc1ccc(NC(=O)CN2CCN(c3ncnc4c3cnn4-c3ccccc3)CC2)cc1 be said to have growth at or above 80%?
result: true

query: Is growth for COC(=O)C[C@](O)(CCCC(C)(C)O)C(=O)O[C@H]1C(OC)=C[C@@]23CCCN2CCc2cc4c(cc2[C@@H]13)OCO4 at or above 80%?
result: false

query: Decide: growth of COc1cc(/C=C2\C(=N)N=C(SCc3nc4ccccc4[nH]3)NC2=O)ccc1O >= 80%?
result: true

query: Would you say CSc1ccccc1NC(=O)c1ccc2nn(/C(C#N)=C/c3ccccn3)nc2c1 shows growth at minimum 80%?
result: false
